- System: M14 melanoma
- assay: NCI-60 one-dose screen, 48 h (100 = growth as untreated, 0 = no growth, -100 = all killed)
- condition-summary: 10 µM unless noted
The panel holds about 83,000 compounds, 20% with a hit somewhere; the sample as a whole holds those more often.
growth reference

compound	growth (%)
O=C(c1ccccc1)C(c1ccccc1)N1CCOCC1 (stereo unspecified)	99.8
CCOc1cc2ncc(C#N)c(Nc3ccc(OCc4ccccn4)c(Cl)c3)c2cc1NC(=O)/C=C/CN(C)C	-82.4
CCCCCC(=O)OCc1ccc(Cl)c(Cl)c1	104
Cc1cc2c(F)c(Oc3ncnn4cc(OC[C@@H](C)OC(=O)[C@H](C)N)c(C)c34)ccc2[nH]1	16.3
O=C(COc1cccc(/C=C2\Cc3ccc(Cl)cc3C2=O)c1)Nc1nccs1	107
CNC(=O)c1ccccc1Nc1nc(Nc2ccc3c(c2OC)CCC[C@H](N2CCN(CCO)CC2)C3)ncc1Cl	-69
Cc1ccsc1C(NC(=O)c1ccccc1)c1cc(Cl)c2cccnc2c1O (stereo unspecified)	12.3
COc1cc(Nc2ncc3c(n2)-c2ccc(Cl)cc2C(c2c(F)cccc2OC)=NC3)ccc1C(=O)O	62.8
O=c1[nH]c([C@@H]2CCCN2)nc2c1oc1ccc(Cl)cc12	53.6
COc1cc(N2CCC(N(C)C)CC2)ccc1Nc1ncc(Cl)c(Nc2ccccc2P(C)(C)=O)n1	10.3
C[C@@H](C[C@H](CCO)c1cc(C(F)(F)F)cc(C(F)(F)F)c1)c1ccc2ccccc2c1	79.7
Cn1cc(-c2ncnc3ccc(-c4cnc(Cl)c(NS(C)(=O)=O)c4)cc23)c2ccccc21	9.65
O=C1C=CC2(NN=C(c3ccccc3)N2c2cccc(Cl)c2)C(Cl)=C1 (stereo unspecified)	84.7
CN1CCN(c2nc(NCCNc3ccnc4cc(Cl)ccc34)c3ccccc3n2)CC1	-63.3
CCCCCCCC(=O)SCC/C=C/[C@@H]1CC(=O)NCc2cccc(n2)C2=N[C@@](C)(CS2)C(=O)N[C@@H](C(C)C)C(=O)O1	5.95
CN1CCC(CNc2ccc3ncc(-c4cccc(OC(F)(F)F)c4)n3n2)CC1	-73.3
C[C@@H](Nc1cc(F)cc(F)c1)c1cc(C(=O)N(C)C)cc2c(=O)cc(N3CCOCC3)oc12	69.2
C=CCCCC(=O)CCC(=O)OCC1O[C@@H](O[C@@H]2C(O)[C@@H](OC(C)=O)C(C)O[C@H]2O[C@H](CC=C)CCCCC)C(O)[C@@H](OC(=O)/C(C)=C/C)[C@@H]1OC(=O)/C=C/c1ccccc1 (stereo partly specified)	-10.3
NC1(C(=O)N[C@@H](CCO)c2ccc(Cl)cc2)CCN(c2ncnc3[nH]ccc23)CC1	46.3
COc1cc2c(cc1OCCCN1Cc3ccc(OCCCCC(=O)N4CCC(CCN5CCCC5)CC4)cc3C1)N=C(N)C21CCCC1	58.2
CCCCCCCC(=O)SCC/C=C/[C@@H]1CC(=O)NCc2cccc(n2)C2=N[C@@](C)(CS2)C(=O)N[C@@H](C(C)C)C(=O)N1	35.6
COc1cc2ncnc3c2cc1OCCCCCN(C)Cc1ccc(Br)cc1N3	36.9
Cc1cc(Nc2cc(N3CCN(C)CC3)nc(Sc3ccc(NC(=O)C4CC4)cc3)n2)n[nH]1	22.3
C=CC(=O)Nc1cc2c(Nc3ccc(F)c(Cl)c3)ncnc2cc1C#CC(C)(C)N1CCN(C)CC1	-90
Cc1cc(C(=O)Nc2cc(Oc3ccc4nc(NC(=O)C5CC5)cn4n3)ccc2C)n(C)n1	-8.27
COc1ccc(-n2c(=O)c3ccccc3n(Cc3ccc(C(=O)NO)cc3)c2=O)cc1	-7.23
